system: MDA-MB-231 breast; test: NCI tumour cell line growth inhibition, 48 h
Entries and their TGI

Field: example entries. Status: answers known.
compound: COc1cc(C2CC(c3ccc(SC)cc3)=NN2C(C)=O)cc(OC)c1OC (centres undefined)
attribute_measured: TGI
result: > 100 µM

compound: CC[C@@]1(O)C(=O)OCc2c1cc1n(c2=O)Cc2c-1nc1ccccc1c2/C=N/NC(=O)C[N+](C)(C)C
attribute_measured: TGI
result: > 100 µM

Quick one: TGI for Oc1ccc(OCCOc2ccc(O)cc2)cc1 ?
> 100 µM

Quick one: TGI for C=C(C)[C@@H]1/C=C(/C(C)C)CC[C@@]2(C)OC2CC[C@H](C)CC1=O (some centres undefined) ?
49.5 µM

Quick one: TGI for COc1cc(/C=C/c2cc(/C=C/c3ccc(O)c(OC)c3)n(C(N)=O)n2)ccc1O ?
12.8 µM

Quick one: TGI for CC1=C(C)C(=O)C(C2=C(C3=CC(=O)C(C)=C(C)C3=O)C(=O)C(C)=C(C)C2=O)=CC1=O ?
5.29 µM

Quick one: TGI for COc1ccc(-c2cc(C(=O)N3N=C(c4ccc(N)cc4)CC3c3ccc(Cl)cc3)c3ccccc3n2)cc1 (centres undefined) ?
> 100 µM

Quick one: TGI for CCOC(=O)c1ccc(N=C2S/C(=C\C(=S)Nc3ccccc3)N(c3ccccc3)C2=Nc2ccc(C(=O)OCC)cc2)cc1 ?
> 100 µM

Quick one: TGI for COc1cc(Nc2cc(O)c3c(=O)cc(-c4ccccc4)oc3c2)cc(OC)c1 ?
18.4 µM
